- TGT: human CB2 receptor (Homo sapiens)
- Sequence (P34972 whole entry): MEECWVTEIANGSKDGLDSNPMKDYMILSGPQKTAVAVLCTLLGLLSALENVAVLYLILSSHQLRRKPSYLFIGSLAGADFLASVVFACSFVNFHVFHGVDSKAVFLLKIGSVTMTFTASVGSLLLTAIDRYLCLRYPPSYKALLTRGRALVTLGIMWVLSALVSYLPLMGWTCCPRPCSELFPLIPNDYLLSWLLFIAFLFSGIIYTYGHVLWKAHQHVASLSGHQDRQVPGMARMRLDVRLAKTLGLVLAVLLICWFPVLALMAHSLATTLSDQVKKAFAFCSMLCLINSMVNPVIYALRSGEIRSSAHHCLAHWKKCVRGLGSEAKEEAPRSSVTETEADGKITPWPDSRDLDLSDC
- ASSAY COMMENT: Binding assay, cannabinoid CB2 receptor ([3H]-CP-55,940 displacement)
- APPLIED CONDITIONS: Cannabinoid CB2 Receptor Binding IC50, human CB2 receptor, SK-N-MC cell membranes, radioligand CP-55,940 0.2 nM
- Description: Binding Assay for CB1 or CB2 Agonists or Inverse Agonists The human CB1 and CB2 receptors were stably expressed in SK-N-MC cells transfected with pcDNA3 CB-1 (human) or pcDNA3 CB-2 (human). […] On the day of the assay, the pellet was thawed on ice and diluted in assay buffer (50 mM Tris-HCl, 5 mM MgCl2, 2.5 mM EDTA, 0.5 mg/mL fatty acid free bovine serum albumin, pH 7.5). […] Non-specific binding was measured in wells containing 10 uM WIN 55,212. […]
pIC50: −log10 of the molar value.
Note to self: values exactly at 6 are MET. So pIC50 at or above 6 is MET, below is NOT MET.

A selection of reference data follows.
Ask: Decide: is the reported value of pIC50 for CC1(C)C2CCC1(C)C(NC(=O)c1nn(C3CCCCC3)c3c1CCCC3)C2 (stereo not drawn) [compound 25] equal to or greater than 6?
Result: MET

Ask: Decide: is the reported value of pIC50 for C[C@H](NC(=O)c1nn(C2CCCCC2)c2c1CCCC2)C12CC3CC(CC(C3)C1)C2 [compound 213] equal to or greater than 6?
Result: MET

More entries:
Ask: Decide: is the reported value of pIC50 for O=C(NNC1CCCCCCC1)c1nn(-c2ccc(F)cc2)c2c1CCCC2 [compound 299] equal to or greater than 6?
Result: NOT MET

---

- TGT: human CB1 receptor (Homo sapiens)
- Construct: expressed in transfected cells; host or cells: SK-N-MC cells, stably transfected with pcDNA3 CB-1 (human); semi-purified membrane pellet
- Sequence (P21554 whole entry): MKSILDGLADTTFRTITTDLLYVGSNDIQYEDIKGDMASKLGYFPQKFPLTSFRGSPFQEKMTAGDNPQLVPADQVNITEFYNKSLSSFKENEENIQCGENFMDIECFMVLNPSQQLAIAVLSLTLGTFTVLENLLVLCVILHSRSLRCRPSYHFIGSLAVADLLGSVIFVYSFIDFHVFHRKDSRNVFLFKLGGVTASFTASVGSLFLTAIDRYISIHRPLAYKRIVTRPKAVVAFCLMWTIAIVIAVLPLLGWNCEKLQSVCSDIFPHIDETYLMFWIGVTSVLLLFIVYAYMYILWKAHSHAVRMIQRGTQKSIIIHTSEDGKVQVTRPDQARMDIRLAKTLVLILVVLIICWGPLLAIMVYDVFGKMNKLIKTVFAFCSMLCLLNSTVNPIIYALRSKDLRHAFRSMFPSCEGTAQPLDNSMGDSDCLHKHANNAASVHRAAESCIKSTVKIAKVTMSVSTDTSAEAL
- ASSAY COMMENT: biochemical
- Assay type: binding
IC50 less than 400 nM is rule met; IC50 greater than or equal to 400 nM is rule not met.

Ask: Lab note: confirm whether the reported IC50 for this compound is below 400 nM, equality not counting. compound: O=C(N[C@@H]1CCCC[C@@H]1CO)c1nn(C2CCCCC2)c2c1CCCC2 [compound 48]
Result: rule met

Ask: Lab note: confirm whether the reported IC50 for this compound is below 400 nM, equality not counting. compound: O=C(NC12CC3CC(CC(C3)C1)C2)c1nn(-c2ccc(Cl)cc2Cl)c2c1CCCC2 [compound 139]
Result: rule met

Ask: Lab note: confirm whether the reported IC50 for this compound is below 400 nM, equality not counting. compound: CC12CCC(C1)C(C)(C)C2NC(=O)c1nn(-c2ccccc2)c2c1CCCC2 (centres unmarked) [compound 1]
Result: rule met

Ask: Lab note: confirm whether the reported IC50 for this compound is below 400 nM, equality not counting. compound: CCOC(=O)[C@H]1CCCC[C@@H]1NC(=O)c1c2c(nn1Cc1ccccc1)CCCC2 [compound 271]
Result: rule not met

More entries:
Ask: Lab note: confirm whether the reported IC50 for this compound is below 400 nM, equality not counting. compound: C[C@@H](NC(=O)c1nn(-c2ccc(Cl)cc2Cl)c2c1CCCC2=Cc1ccco1)c1ccccc1 [compound 371]
Result: rule met

Ask: Lab note: confirm whether the reported IC50 for this compound is below 400 nM, equality not counting. compound: CCOC(=O)C1CCCc2c1c(C(=O)N[C@H](C)C1CCCCC1)nn2C1CCCCC1 (some centres unmarked) [compound 285]
Result: rule not met

Ask: Lab note: confirm whether the reported IC50 for this compound is below 400 nM, equality not counting. compound: O=C(Nc1nn(C2CCCCC2)c2c1CCCC2)c1cccc2ccccc12 [compound 181]
Result: rule met

---

- TGT: human CB1 receptor (Homo sapiens)
- Construct: expressed in transfected cells; host or cells: SK-N-MC cells, stably transfected with pcDNA3 CB-1 (human); semi-purified membrane pellet
- ASSAY COMMENT: Functional cell-based assay, CB1 receptor mediated change in CRE β-gal expression (agonist / inverse agonist)
PARAMETER MEASURED: EC50 (nM)
Report the value in nM with no unit label.

Consider the following illustrative entries.
Ask: Tell me EC50 reported for O=C(NN1CCCCC1)c1nn(-c2ccc(Cl)cc2Cl)c2c1CCCC2=Cc1ccc(F)cc1 [Cpd 297]
Result: 5

Ask: Tell me EC50 reported for C[C@H](NC(=O)c1nn(-c2ccc(Cl)cc2Cl)c2c1CCC/C2=C\c1ccc(Cl)cc1)c1ccccc1 [compound 294]
Result: 140

Ask: Tell me EC50 reported for CC12CCC(C1)C(C)(C)C2NC(=O)c1nn(-c2ccc(F)cc2)c2c1CCCC2CCc1ccccc1 (stereo not shown) [compound 151]
Result: 801

Now for the compound whose EC50 we want.
Ask: Tell me EC50 reported for C[C@H](NC(=O)c1nn(-c2ccc(Cl)cc2Cl)c2c1CCCC2=Cc1ccc(Cl)cc1)C1CCCCC1 [compound 321]
Result: 133

---

- TGT: UniProtKB P34972
- ASSAY COMMENT: Binding assay, cannabinoid CB2 receptor ([3H]-CP-55,940 displacement)
- APPLIED CONDITIONS: Cannabinoid CB2 Receptor Binding IC50, human CB2 receptor, SK-N-MC cell membranes, radioligand CP-55,940 0.2 nM
PARAMETER MEASURED: IC50 (nM)
Report the value in nM with no unit label.

Consider the following illustrative entries.
Ask: Tell me IC50 reported for C[C@@H](NC(=O)c1nn(Cc2ccccc2)c2c1CCCC2)c1ccccc1 [compound 199]
Result: 10

Ask: Tell me IC50 reported for CC12CCC(C1)C(C)(C)C2NC(=O)c1nn(-c2ccc(F)cc2)c2c1CCCC2 (centres unmarked) [compound 10]
Result: 6

Ask: Tell me IC50 reported for CC12CCC(C1)C(C)(C)C2NC(=O)c1nn(-c2ccccn2)c2c1CCCC2 (centres unmarked) [compound 160]
Result: 3500

Ask: Tell me IC50 reported for O=C(NC1C2CC3CC(C2)CC1C3)c1nn(C2CCCCC2)c2c1CC(NC(=O)C(F)(F)F)CC2 (centres unmarked) [compound 87]
Result: 26.6

Now for the compound whose IC50 we want.
Ask: Tell me IC50 reported for CCOC(=O)[C@@H]1CCc2c(c(C(=O)NC3C4CC5CC(C4)CC3C5)nn2C2CCCCC2)C1 (some centres unmarked) [Cpd 209]
Result: 200

---

- TGT: human CB2 receptor (Homo sapiens)
- ASSAY COMMENT: Binding assay, cannabinoid CB2 receptor ([3H]-CP-55,940 displacement)
- APPLIED CONDITIONS: Cannabinoid CB2 Receptor Binding IC50, human CB2 receptor, SK-N-MC cell membranes, radioligand CP-55,940 0.2 nM
PARAMETER MEASURED: IC50 (µM)
Report the value in µM with no unit label.

Ask: Give human CB2 receptor (Homo sapiens) IC50 for the following molecule: O=C(NC12CC3CC(CC(C3)C1)C2)c1nn(-c2ccc(F)cc2)c2c1CCCC2CCc1ccccc1 (stereo not drawn)
Result: 0.04

Ask: Give human CB2 receptor (Homo sapiens) IC50 for the following molecule: COC(=O)C(Cc1ccc(O)cc1)NC(=O)c1c2c(nn1-c1ccc(OC)cc1)CCCC2 (stereo not drawn)
Result: 0.367

Ask: Give human CB2 receptor (Homo sapiens) IC50 for the following molecule: "C[C@@H](NC(=O)c1nn(C2CCCCC2)c2c1CCCC2)C12CC3CC(CC(C3)C1)C2"
Result: 0.074

Ask: Give human CB2 receptor (Homo sapiens) IC50 for the following molecule: "CCOC(=O)[C@@H]1CCCC[C@@H]1NC(=O)c1c2c(nn1Cc1ccccc1)CCCC2"
Result: 1.8

Ask: Give human CB2 receptor (Homo sapiens) IC50 for the following molecule: CCOC(=O)C1C2CCC(C2)C1NC(=O)c1nn(Cc2ccccc2)c2c1CCCC2 (stereo not drawn)
Result: 0.001

Ask: Give human CB2 receptor (Homo sapiens) IC50 for the following molecule: CCOC(=O)C1CCc2c(C(=O)NC(C)C34CC5CC(CC(C5)C3)C4)nn(C3CCCCC3)c2C1 (stereo not drawn)
Result: 0.0027

Ask: Give human CB2 receptor (Homo sapiens) IC50 for the following molecule: CC(NC(=O)c1nn(Cc2ccccc2)c2c1CCCC2c1ccccc1)C1CCCCC1 (stereo not drawn)
Result: 0.27

Ask: Give human CB2 receptor (Homo sapiens) IC50 for the following molecule: "COc1ccccc1CCNC(=O)c1nn(Cc2ccccc2)c2c1CCCC2"
Result: 0.151

Ask: Give human CB2 receptor (Homo sapiens) IC50 for the following molecule: CCOC[C@H]1C2CCC(C2)[C@H]1NC(=O)c1nn(C2CCCCC2)c2c1CCCC2 (stereo partly drawn)
Result: 1.4

Ask: Give human CB2 receptor (Homo sapiens) IC50 for the following molecule: CC12CCC(C1)C(C)(C)C2NC(=O)CCc1nn(C2CCCCC2)c2c1CCCC2 (stereo not drawn)
Result: 0.013

Ask: Give human CB2 receptor (Homo sapiens) IC50 for the following molecule: "C[C@H](NC(=O)c1nn(Cc2ccccc2)c2c1CCCC2)C1CCCCC1"
Result: 0.002

Ask: Give human CB2 receptor (Homo sapiens) IC50 for the following molecule: "CCOC(=O)[C@@H]1CCCC[C@@H]1NC(=O)c1nn(C2CCCCC2)c2c1CCCC2"
Result: 0.0128
